target_of_assay: T1, human PACAP38 (human, not fully specified; C-terminal lysine is amidated; N-terminal or C-terminal biotin in the HTRF and PC-12 cell binding assays)
T1 construct: synthetic peptide, bought; also called huPACAP (1-38)
T1 peptide: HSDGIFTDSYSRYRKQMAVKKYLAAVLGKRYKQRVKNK
test_details: inhibition of 100 nM biotin-PACAP38 binding to PC-12 cells, TRF
# key: entry, value: IC50
Write the number in µM without appending the unit.

Ask: I am curious: what IC50 value has been reported for anti-PACAP antibody Ab11 (antibody, human IgG1, kappa, N297A, V domains shown, full-length rabbit/human chimeric antibody) VH: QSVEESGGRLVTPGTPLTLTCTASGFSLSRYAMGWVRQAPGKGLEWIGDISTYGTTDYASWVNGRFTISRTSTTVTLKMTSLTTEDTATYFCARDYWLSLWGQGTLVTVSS VL: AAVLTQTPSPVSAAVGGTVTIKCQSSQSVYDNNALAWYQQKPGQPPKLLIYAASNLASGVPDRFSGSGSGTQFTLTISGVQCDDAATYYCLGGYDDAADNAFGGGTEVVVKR ?
Result: 0.0246

Ask: I am curious: what IC50 value has been reported for anti-PACAP antibody Ab8 (antibody, human IgG1, kappa, N297A, V domains shown, full-length rabbit/human chimeric antibody) VH: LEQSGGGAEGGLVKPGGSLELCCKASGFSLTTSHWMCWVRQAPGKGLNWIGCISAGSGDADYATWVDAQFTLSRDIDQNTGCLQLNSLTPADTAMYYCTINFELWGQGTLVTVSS VL: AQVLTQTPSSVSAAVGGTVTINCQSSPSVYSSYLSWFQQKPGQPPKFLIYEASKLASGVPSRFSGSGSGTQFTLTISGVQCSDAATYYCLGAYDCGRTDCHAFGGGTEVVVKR ?
Result: 0.0203
